- Measurement target: Aurora kinase B (Homo sapiens);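 further: reported percent inhibition is a mean value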
- Condition parameters: at 1 µM
We use 6% as the dividing line for inhibition: on or above the line is y, below is n.

For orientation, consider the following solved cases.
CCc1nn2ncccc2c1-c1ccnc(NC2CC2)n1 ... y
COC(=O)c1sc(-n2cnc3cc(OC)c(OC)cc32)cc1OCc1ccccc1C(F)(F)F ... y

Data request: Given Cc1cccc(Nc2ncc(-c3ccccc3)o2)c1 , state whether its inhibition is at least 6%.
Data returned: y

Data request: // inclusive: inhibition at least 6%? input: CCn1c(-c2nonc2N)nc2cnc(Oc3cccc(NC(=O)c4ccc(N(C)C)cc4)c3)cc21
Data returned: y

Data request: Identify whether the reported inhibition of the following molecule is 6% or greater: [O-][S+]1CCN(Cc2ccc(-c3ccc4ncnc(Nc5ccc(OCc6cccc(F)c6)c(Cl)c5)c4c3)o2)CC1
Data returned: y
